test system: HCT-15 colon; assay: NCI tumour cell line growth inhibition, 48 h
Catalogue of TGI values

{"MOLECULE": "CCOC(=O)c1c(C)nc2c(c1N)/C(=C/c1ccccn1)C(=O)N2Cc1ccccc1", "TGI": "2.63 µM"}
{"MOLECULE": "CSc1ccc(NC(=O)C2c3[nH]c4ccccc4c3C3CCC(C(C)(C)C)CC3C2C(=O)O)cc1 (stereo unspecified)", "TGI": "> 100 µM"}
{"MOLECULE": "C=C1C(=O)O[C@H]2[C@H]1CC/C(COC(=O)/C=C\\C(=O)NCc1ccc(Cn3c(=O)sn(CCI)c3=O)cc1)=C\\CC[C@@]1(C)O[C@@H]21", "TGI": "5.42 µM"}
{"MOLECULE": "CC(=O)OCC1OC(NC(=O)N(CCCl)N=O)C(OC(C)=O)C(OC(C)=O)C1OC(C)=O (stereo unspecified)", "TGI": "> 100 µM"}
{"MOLECULE": "CCCCCCCCCCNCCSS(=O)(=O)O", "TGI": "17 µM"}
{"MOLECULE": "COc1ccc(OC)c(NC(=O)C(=O)CC(=O)c2sc(-n3nc(-c4ccccc4)cc3-c3ccccc3)nc2C)c1", "TGI": "> 100 µM"}
{"MOLECULE": "CC/C(Cl)=N\\OC(=O)Nc1ccc(OC)c(C)c1", "TGI": "34.5 µM"}
{"MOLECULE": "CCCCOc1ccc(/C=N/Nc2cc(C)nc3ccc(Br)cc23)cc1", "TGI": "3.05 µM"}
{"MOLECULE": "O=C1c2cccc(O)c2C(=O)c2c(O)cccc21", "TGI": "> 100 µM"}
{"MOLECULE": "Fc1ccc(-c2nn3ccccc3c2-c2ccncc2)cc1", "TGI": "> 25 µM"}
{"MOLECULE": "COc1cc2ncnc(Nc3ccc(Oc4ccnc(C)c4)c(C)c3)c2cc1NC(=O)CC1CCSS1 (stereo unspecified)", "TGI": "2.31 µM"}
{"MOLECULE": "CC(=O)Nc1cc2cc(NS(=O)(=O)c3ccc(Cl)c(Cl)c3)ccc2oc1=O", "TGI": "> 100 µM"}
{"MOLECULE": "COc1cc([N+](=O)[O-])c(S(=O)(=O)O)cc1-n1nc(C(=O)Nc2ccccc2)n[n+]1-c1cc(S(=O)(=O)[O-])c([N+](=O)[O-])cc1OC", "TGI": "> 100 µM"}
{"MOLECULE": "NC(Cc1c[nH]c2ccc([N+](=O)[O-])cc12)C(=O)O (stereo unspecified)", "TGI": "> 100 µM"}
{"MOLECULE": "Nc1nc(N)c2ncn(CCOC(c3ccccc3)P(=O)(O)O)c2n1 (stereo unspecified)", "TGI": "> 100 µM"}
{"MOLECULE": "Cc1cc(S(=O)(=O)Nc2nnc3ccccn23)c(S)cc1Cl", "TGI": "> 100 µM"}
{"MOLECULE": "CCOC(=O)/C(C(=S)NCc1ccccc1)=C(/N)N1CCCC1", "TGI": "> 100 µM"}
{"MOLECULE": "COc1ccc(C(=O)c2cc3c(N)c(C(=O)Nc4cccc(Br)c4C)sc3nc2C)cc1", "TGI": "> 100 µM"}
{"MOLECULE": "COc1ccc(N=Nc2ccc3oc(=O)c(C(=O)Nc4ccccc4C)cc3c2)cc1", "TGI": "> 10 µM"}
{"MOLECULE": "CCNC1=C(NC(=O)c2ccccc2)C(=O)c2ccccc2C1=O", "TGI": "> 100 µM"}
{"MOLECULE": "Cc1nc2sc3c(N)ncnc3c2c(C)c1C", "TGI": "> 25 µM"}
